tested-on: human Glucagon receptor (GCGR) (human, UniProt P47871 26-477)
assay-explanation: cell-based or functional assay
*1 amine or outer side, *2 acyl side, *3 side chain or, on linkers, in order; H or OH if unused. Bridges are numbered along the chain shown (N, C = ends). Primed or numbered codes have the meaning given here. Where no end group is shown, it is not given here. Side-chain parts run from the residue outwards. [ ]: non-standard residue; d: D form. The star is where a group is joined. dpeg″ = spacer —[CO(CH2)O(CH2)2O(CH2)NH]—, O=C(COCCOCN[*:1])[*:2]; dpeg = —[CO(CH2)O(CH2)2O(CH2)NH]— spacer, O=C(COCCOCN[*:1])[*:2]; C20 diacid = O=C(O)CCCCCCCCCCCCCCCCCCC(=O)*; γGlu = O=C(O)[C@H](CCC(=O)[*:2])N[*:1]; Aib = CC(C)(N)C(=O)O
Provide the recorded pEC50, cAMP accumulation for the entries that follow.

binder: YSHGTFTSDYSKYLDK([γGlu-γGlu-dpeg″-C20 diacid])KYAEKFVKWLEEEPSSGAPPPS-OH (lactam 20-24) [Compound A25]
pEC50, cAMP accumulation: 11.9 pEC50 (-log M)

I would be grateful if you could provide pEC50, cAMP accumulation for each of the following entries.
1. YSHGTFTSDYSKYLDK([γGlu-γGlu-dpeg″-C20 diacid])KYAEKFVKWLEDEPSSGSPPPS-OH (lactam 20-24) [Compound A33]
2. YSHGTFTSDYSKYLD[Aib]K([γGlu-γGlu-dpeg-C20 diacid])YAQEFV[Aib]WLEDEPSSGAPPPS-OH [Compound A3]

(A)
1: 11.9 pEC50 (-log M); 2: 12.5 pEC50 (-log M)
